Biological target: Bacillus thuringiensis (Bt) Cry1Ac toxin (Bacillus thuringiensis, UniProt P05068 1-1178)
Sequence (P05068 whole entry): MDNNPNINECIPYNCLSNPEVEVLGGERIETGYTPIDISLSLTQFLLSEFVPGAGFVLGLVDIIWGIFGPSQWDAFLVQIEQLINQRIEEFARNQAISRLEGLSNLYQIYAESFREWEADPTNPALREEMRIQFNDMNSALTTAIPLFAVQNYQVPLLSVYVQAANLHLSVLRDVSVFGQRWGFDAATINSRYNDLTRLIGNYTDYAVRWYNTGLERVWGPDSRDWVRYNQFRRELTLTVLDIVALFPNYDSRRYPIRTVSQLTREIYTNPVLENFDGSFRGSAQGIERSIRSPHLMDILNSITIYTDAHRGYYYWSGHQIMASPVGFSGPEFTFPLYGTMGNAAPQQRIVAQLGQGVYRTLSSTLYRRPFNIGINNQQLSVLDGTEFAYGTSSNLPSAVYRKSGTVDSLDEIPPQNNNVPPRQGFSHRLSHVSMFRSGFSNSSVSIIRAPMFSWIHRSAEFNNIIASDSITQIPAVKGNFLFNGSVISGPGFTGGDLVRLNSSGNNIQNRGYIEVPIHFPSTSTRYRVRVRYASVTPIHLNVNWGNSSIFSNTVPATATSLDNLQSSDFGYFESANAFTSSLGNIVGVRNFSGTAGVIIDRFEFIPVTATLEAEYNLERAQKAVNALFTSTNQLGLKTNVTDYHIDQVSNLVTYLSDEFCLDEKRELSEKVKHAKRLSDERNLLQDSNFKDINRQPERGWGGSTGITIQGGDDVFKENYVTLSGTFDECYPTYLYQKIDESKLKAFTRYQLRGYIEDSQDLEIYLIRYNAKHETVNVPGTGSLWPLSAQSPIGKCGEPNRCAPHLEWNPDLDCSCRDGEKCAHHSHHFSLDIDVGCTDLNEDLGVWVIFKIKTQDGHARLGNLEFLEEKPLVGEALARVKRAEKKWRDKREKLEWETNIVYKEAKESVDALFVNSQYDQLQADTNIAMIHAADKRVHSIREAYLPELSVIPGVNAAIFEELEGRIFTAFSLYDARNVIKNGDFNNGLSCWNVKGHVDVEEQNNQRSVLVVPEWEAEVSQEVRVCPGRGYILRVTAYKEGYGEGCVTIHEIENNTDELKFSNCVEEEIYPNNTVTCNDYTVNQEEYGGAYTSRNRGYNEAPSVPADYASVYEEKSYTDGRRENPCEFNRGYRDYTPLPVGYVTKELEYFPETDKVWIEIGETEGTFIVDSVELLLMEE
Test: SPR
Property Name: Kd (nM)
Give the value in nM but do not write nM after it.

Some solved cases for reference:
anti-Cry1Ac nanobody Nb58 (VHH) VHH: QVQLQESGGGLVQPGGSLRLSCTASGFTFSSYEMDWFRRAPGKELEWVAGITSGGEGTSYRNSVKGRFTISRDNAKNTLYLHLNSLKNEDTAMYYCAKDRRALGEVGQGTQVTVSS	23.2
anti-Cry1Ac nanobody Nb44 (VHH) VHH: QVQLQESGGGSVQAGGSLRLSCATSGLTYSARITWFRQAPEKEREGVATFSTGSGSTGYADSVKGRFTISQDNAKNTLYLQMNNLKPEDTAMYYCAADTSTSWRDIVLVARYKYWGQGTQVTVSS	6.89
anti-Cry1Ac nanobody Nb59 (VHH) VHH: QVQLQESGGGLVQPGGSLRLSCAASGFTFRDYYMTWVRQAPGQGLEWVSSISFGGGRTYYADSVKGRFTISRDNPENTLYLQLSNLKTEDTAMYYCARGRPNADYDRRGQGTQVTVSS	18

Tell me its Kd given anti-Cry1Ac nanobody Nb61 (VHH) VHH: QVQLQESGGGSVQAGGSLRLSCEASENTYNSVYMAWFRQAPEKEREGVAVLSTGGGRTYYTDSVKGRFTISRDNAKNMVYLQMNSLKPDDTAMYYCAATYTGDSYGPSLYYLTPGRYEYWGQGTQVTVSS as the entry.
60.9
